Target or system Kappa-type opioid receptor (Homo sapiens); recorded quantity AC50. Further: assay procedure not described here.
readout: AC50

{"columns": ["compound", "experimentalSystem", "readout", "result"],
 "data": [
  ["NS(=O)(=O)c1cc(Cl)c(Cl)c(S(N)(=O)=O)c1 [DICHLORPHENAMIDE]", "Kappa-type opioid receptor (Homo sapiens)", "AC50", "> 10 µM"],
  ["NS(=O)(=O)c1cc(-c2nnn[nH]2)c(NCc2cccs2)cc1Cl [AZOSEMIDE]", "Kappa-type opioid receptor (Homo sapiens)", "AC50", "> 30 µM"],
  ["N[C@@H](CSCC(=O)O)C(=O)O", "Kappa-type opioid receptor (Homo sapiens)", "AC50", "> 30 µM"],
  ["Oc1ncnc2[nH]ncc12", "Kappa-type opioid receptor (Homo sapiens)", "AC50", "> 10 µM"],
  ["COc1ccc2cccc(CCNC(C)=O)c2c1", "Kappa-type opioid receptor (Homo sapiens)", "AC50", "> 10 µM"],
  ["COc1cc2c(cc1OC)C(=O)C(CC1CCN(Cc3ccccc3)CC1)C2 (stereo not given)", "Kappa-type opioid receptor (Homo sapiens)", "AC50", "> 10 µM"],
  ["CO/N=C(\\C(=O)N[C@@H]1C(=O)N2C(C(=O)OCOC(=O)C(C)(C)C)=C(C)CS[C@H]12)c1csc(N)n1", "Kappa-type opioid receptor (Homo sapiens)", "AC50", "> 30 µM"],
  ["COC(=O)[C@@H]1CC2=CC(=O)CC[C@]2(C)[C@@]23O[C@@H]2C[C@@]2(C)[C@@H](CC[C@@]24CCC(=O)O4)[C@H]13", "Kappa-type opioid receptor (Homo sapiens)", "AC50", "> 10 µM"],
  ["COc1ccc2c(c1)C(=O)N(CCc1ccc(S(=O)(=O)NC(=O)NC3CCCCC3)cc1)C(=O)C2(C)C", "Kappa-type opioid receptor (Homo sapiens)", "AC50", "> 30 µM"],
  ["CS(=O)(=O)c1ccc([C@@H](O)[C@@H](CO)NC(=O)C(Cl)Cl)cc1", "Kappa-type opioid receptor (Homo sapiens)", "AC50", "> 30 µM"],
  ["C[C@]12CCC(=O)C=C1CC[C@@H]1[C@@H]2CC[C@@]2(C)[C@H]1CC[C@]2(C)O", "Kappa-type opioid receptor (Homo sapiens)", "AC50", "> 30 µM"],
  ["COc1ccc2c(c1)c(CC(=O)OCC(=O)O)c(C)n2C(=O)c1ccc(Cl)cc1", "Kappa-type opioid receptor (Homo sapiens)", "AC50", "> 30 µM"],
  ["O=C1CCC(N2C(=O)c3ccccc3C2=O)C(=O)N1 (stereo not given) [THALIDOMIDE]", "Kappa-type opioid receptor (Homo sapiens)", "AC50", "> 10 µM"],
  ["CCCCCCCCCCCC[N+](C)(C)CCOc1ccccc1", "Kappa-type opioid receptor (Homo sapiens)", "AC50", "3.6 µM"],
  ["O=C(OCCN1CCOCC1)c1cccnc1Nc1cccc(C(F)(F)F)c1 [MORNIFLUMATE]", "Kappa-type opioid receptor (Homo sapiens)", "AC50", "24 µM"]
]}

These entries and their values trace back to ChEMBL document CHEMBL5291721.
